Target: κ opioid receptor (Homo sapiens, UniProt P41145)
Sequence (P41145 whole entry): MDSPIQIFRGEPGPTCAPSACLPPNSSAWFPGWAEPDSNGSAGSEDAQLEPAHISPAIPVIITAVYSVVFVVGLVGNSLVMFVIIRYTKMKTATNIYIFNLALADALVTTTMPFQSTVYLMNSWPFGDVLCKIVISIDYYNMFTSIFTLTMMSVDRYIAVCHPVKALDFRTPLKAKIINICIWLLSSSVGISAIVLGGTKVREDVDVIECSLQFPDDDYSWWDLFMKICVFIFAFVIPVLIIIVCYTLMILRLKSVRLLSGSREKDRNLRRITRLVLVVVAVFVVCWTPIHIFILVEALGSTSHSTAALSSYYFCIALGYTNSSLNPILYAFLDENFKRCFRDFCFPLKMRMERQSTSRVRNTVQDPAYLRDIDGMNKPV
Experiment: biochemical
Type: binding
Set-up: expressed in transfected cells; host or cells: HEK 293 (in-house membrane prep)
Conditions: HEK-293 or CHO cells
pKi: −log10 of the molar value.
Short version: pKi at least 6 is Met, less is Not met.

CN(C)C(=O)C(CCN1CC[C@]2(C)c3cc(O)ccc3CC1[C@H]2O)(c1ccccc1)c1ccccc1    Met
CN1CC[C@]2(C)c3cc(O)ccc3C[C@@H]1[C@H]2COc1cccc(C(=O)O)c1    Not met
CON=C1C2Cc3ccc(OC)cc3C1(C)CCN2CC1CC1 (stereo not shown)    Not met
CN(C)C(=O)C(CCN1CC[C@]2(C)c3cc(O)ccc3CC1C2N(C)C(=O)Nc1ccc(C#N)cc1)(c1ccccc1)c1ccccc1 (stereo in doubt)    Met
COc1ccc2c(c1)C1(C)CCN(C)C(C2)C1=NOCC(=O)O (stereo not shown)    Not met

Query block: # check: pKi of CCOC(=O)C[C@H]1C2Cc3ccc(OC)cc3[C@@]1(C)CCN2C is greater than or equal to 6
Result block: Not met

Query block: Could you do the same for COc1ccc2c(c1)[C@@]1(C)CCN(CC3CC3)C(C2)C1N(C)C(=O)/C=C/c1ccoc1 (stereo in doubt) , please?
Result block: Met

Query block: Could you do the same for CN(C(=O)Nc1ccc(C#N)cc1)C1C2Cc3ccc(O)cc3[C@@]1(C)CCN2CCc1ccccc1 (stereo in doubt) , please?
Result block: Met

Query block: Could you do the same for CN(C(=O)/C=C/c1ccoc1)[C@@H]1[C@H]2Cc3ccc(O)cc3[C@@]1(C)CCN2CC1CC1 , please?
Result block: Met

Query block: Could you do the same for COc1ccc2c(c1)[C@@]1(C)CCN(C)C(C2)[C@@H]1c1cccc(C(=O)O)c1 , please?
Result block: Not met

Query block: Could you do the same for CCN(C(=O)/C=C/c1ccoc1)C1C2Cc3ccc(OC)cc3[C@@]1(C)CCN2C (stereo in doubt) , please?
Result block: Met
